IC50 by entry:
Tested on: P388 murin leukemia cells
Assay: P388 proliferation assay (MTT)
Assay type: cell-based, murine
Conditions: Mus musculus; P388 cells, MTT, 48 hr; read-out: IC50

Prompt: Please indicate IC50 recorded for CC(=O)O[C@@]12CCC(C(=O)OCc3ccco3)=CC[C@@]13CC[C@@H]2C(C)(/C=C/C=C(\C)C(=O)O)OC3=O (some centres unmarked) [PEX-25Y]
Completion: < 0.1 nM

For the next question, use this compound.
Prompt: Please indicate IC50 recorded for COC(=O)C1=CC[C@]23CC[C@H](C(C)(/C=C/C=C(\C)C(=O)O)OC2=O)[C@]3(OC(=O)Cc2ccc(Cl)cc2)CC1 (some centres unmarked) [PEX-24Y]
Completion: 0.26 nM

====

System: A549 human lung adenocarcinoma cells
Experiment: A549 proliferation assay (SRB)
Assay type: cell-based
Conditions: A549 cells, SRB, 72 hr; read-out: IC50
value kind: pIC50
pIC50 field: float, defined as -log10 of concentration (mol/L).

Prompt: # return pIC50 for COC(=O)C1=CC[C@@]23CC[C@@H]([C@@](C)(/C=C/C=C(\C)C(=O)O)OC2=O)[C@@]3(OC(C)=O)CC1 [Pseudolarix acid-B, pseudolaric acid B, reference compound] , test system: A549 human lung adenocarcinoma cells
Completion: 7.55
